I'd be grateful if you could share measured IC50 for these entries.
subject_of_test: T1, Recombinant GST-NEMO (NEMO(1-196)) (UniProt Q9Y6K9 1-196, biotinylated in the library screen)
T1 construct: range 1-196; Expressed in E. coli BL21(DE3); also called NF-κB essential modulator; IKKγ; not shown: glutathione S-transferase (GST) tag encoded by the pGEX4T3 vector
procedure_details: HTRF competition, GST-NEMO + biotin-IKKβKK/RR(701-745), peptide 0-100 µM
Numbered stars: 1 amine (or outer) side, 2 acyl side, 3 side chain; on linkers, the order of the positions; unused ones are H or OH. Bridge positions count the residues as written; N and C are the ends. Square brackets hold non-standard residues; d marks the D form. Ends that are not written are not given here. Trimesoyl = O=C(c1cc(C(=O)[*:2])cc(C(=O)[*:3])c1)[*:1]; 2Nal = N[C@@H](Cc1ccc2ccccc2c1)C(=O)O; Dap = NC[C@H](N)C(=O)O; βAla = NCCC(=O)O
State just the number; it will be interpreted in nM.

Dear colleague, I am looking for the recorded IC50 of the following binder: GWIYA[Dap]F[2Nal]R[dR]R[Dap][βAla][βAla]K (linker N-6-12 via Trimesoyl; not fully specified (N-terminus); printed as Tm(GWIYA)Δ(FΦRrRΔ)-BBK) [peptide 7] 1000

Dear colleague, I am looking for the recorded IC50 of the following binder: GWIYA[Dap]FAR[dR]R[Dap][βAla][βAla]K (linker N-6-12 via Trimesoyl; not fully specified (N-terminus); printed as Tm(GWIYA)Δ(FARrRΔ)-BBK, Alanine-scan variant of peptide 7) [peptide 16] 2800

Dear colleague, I am looking for the recorded IC50 of the following binder: GWIY[Dap]F[2Nal]RRR[Dap][βAla][βAla]K (linker (positions not given here) via trimesic acid; not fully specified (bridges); printed as Tm(GWIY)Δ(FΦRRRΔ)-BBK) [peptide 2] 3400

Dear colleague, I am looking for the recorded IC50 of the following binder: GWIYA[Dap]F[2Nal]R[dR]A[Dap][βAla][βAla]K (linker (positions not given here) via trimesic acid; not fully specified (bridges); printed as Tm(GWIYA)Δ(FΦRrAΔ)-BBK) [peptide 19] 1200

Dear colleague, I am looking for the recorded IC50 of the following binder: GWIY[Dap]F[2Nal]RRR[Dap]R[βAla]K (linker N-5-11 via Trimesoyl; not fully specified (N-terminus); printed as Tm(GWIY)Δ(FΦRRRA)-RBK, Bicyclic peptide; 4th arginine outside the B ring) [peptide 4] 1800

Dear colleague, I am looking for the recorded IC50 of the following binder: AWIYA[Dap]F[2Nal]R[dR]R[Dap][βAla][βAla]K (linker (positions not given here) via trimesic acid; not fully specified (bridges); printed as Tm(AWIYA)Δ(FΦRrRΔ)-BBK) [peptide 11] 1200

Dear colleague, I am looking for the recorded IC50 of the following binder: GWIY[Dap]F[2Nal]RRRR[Dap][βAla][βAla]K (linker (positions not given here) via trimesic acid; not fully specified (bridges); printed as Tm(GWIY)Δ(FΦRRRRΔ)-BBK) [peptide 3] 1500
